Each entry below lists one item and its recorded Oxidation potential E^ox value.
MEASUREMENT_DESCRIPTION: Electrochemical oxidation potentials, cyclic voltammetry
Assay type: physicochemical
APPLIED_CONDITIONS: Table 4; glassy carbon electrode, dry acetonitrile, vs Ag/Ag+, 0.1 M TBABF4; tested as perchlorates
Form entry: value (V) — number only.

Examples with their reported Oxidation potential E^ox follow.
[
  {
    "COMPOUND": "COC(=O)C1=C(C[n+]2ccccc2)N(Cc2ccccc2)C(=O)CC1.[O-][Cl+3]([O-])([O-])[O-] [compound 29]",
    "MEASURED_QUANTITY": "Oxidation potential E^ox",
    "OBSERVED_VALUE": 2.35
  },
  {
    "COMPOUND": "O=C(OCCCCCCCCCCCC(F)(F)F)C1=C(C[n+]2ccccc2)NC(C[n+]2ccccc2)=C(C(=O)OCCCCCCCCCCCC(F)(F)F)C1c1ccccc1.[O-][Cl+3]([O-])([O-])[O-].[O-][Cl+3]([O-])([O-])[O-] [compound 22]",
    "MEASURED_QUANTITY": "Oxidation potential E^ox",
    "OBSERVED_VALUE": 1.57
  }
]

Let us examine a further case.
Query string: Given CCCCCCCCCCCCOC(=O)C1=C(C[n+]2ccc(C(F)(F)F)cc2)NC(C[n+]2ccc(C(F)(F)F)cc2)=C(C(=O)OCCCCCCCCCCCC)C1c1ccccc1.[Br-].[Br-] [compound 21] , respond with its Oxidation potential E^ox.
Result string: 1.63

====

Tested on: HT-1080 (human lung fibrosarcoma)
MEASUREMENT_DESCRIPTION: Cytotoxicity, MTT assay, HT-1080
Assay type: cell-based
APPLIED_CONDITIONS: Homo sapiens, HT-1080; Table 1; 72 h exposure; read-out: HT-1080 IC50 (MTT)
Each entry below lists one item and its recorded IC50 value.
Form entry: value (µg/mL) — number only.

Examples with their reported IC50 follow.
[
  {
    "MOLECULE": "CCCCCCCCCCCCOC(=O)C1=C(C[n+]2ccc(C)cc2)NC(C[n+]2ccc(C)cc2)=C(C(=O)OCCCCCCCCCCCC)C1c1ccccc1.[Br-].[Br-]",
    "TESTED_SYSTEM": "HT-1080 (human lung fibrosarcoma)",
    "IC50 (µg/mL)": 5
  },
  {
    "MOLECULE": "CCOC(=O)C1=C(C[n+]2ccc(N(C)C)cc2)NC(C[n+]2ccc(N(C)C)cc2)=C(C(=O)OCC)C1c1ccccc1.[Br-].[Br-]",
    "TESTED_SYSTEM": "HT-1080 (human lung fibrosarcoma)",
    "IC50 (µg/mL)": 324
  },
  {
    "MOLECULE": "CCCCCCCCCCCCOC(=O)C1=C(C[N+](C)(C)CCCCCCCCCCCC)NC(C[N+](C)(C)CCCCCCCCCCCC)=C(C(=O)OCCCCCCCCCCCC)C1c1ccccc1.[O-][Cl+3]([O-])([O-])[O-].[O-][Cl+3]([O-])([O-])[O-]",
    "TESTED_SYSTEM": "HT-1080 (human lung fibrosarcoma)",
    "IC50 (µg/mL)": 3
  }
]

Query string: Given CCCCCCCCCCCCOC(=O)C1=C(C[N+](C)(C)C2CCCCC2)NC(C[N+](C)(C)C2CCCCC2)=C(C(=O)OCCCCCCCCCCCC)C1c1ccccc1.[O-][Cl+3]([O-])([O-])[O-].[O-][Cl+3]([O-])([O-])[O-] , respond with its IC50.
Result string: 23

====

Tested on: HT-1080 (human lung fibrosarcoma)
MEASUREMENT_DESCRIPTION: Cytotoxicity, crystal violet (CV) assay, HT-1080
APPLIED_CONDITIONS: Homo sapiens, HT-1080, 72 h, read-out: HT-1080 IC50 (CV)
Rule: measured IC50 below 40 µg/mL gets YES; anything equal to or greater than 40 µg/mL gets NO.

[
  {
    "MOLECULE": "O=C(OCCCCC(F)(F)C(F)(F)C(F)(F)C(F)(F)C(F)(F)C(F)(F)C(F)(F)C(F)(F)F)C1=C(C[n+]2ccccc2)NC(C[n+]2ccccc2)=C(C(=O)OCCCCC(F)(F)C(F)(F)C(F)(F)C(F)(F)C(F)(F)C(F)(F)C(F)(F)C(F)(F)F)C1c1ccccc1 [compound 24]",
    "QUALITATIVE_LABEL": "NO"
  },
  {
    "MOLECULE": "CCCCCCCCCCCC[N+](C)(C)CC1=C(C(=O)OC)CCC(=O)N1 [compound 36]",
    "QUALITATIVE_LABEL": "YES"
  },
  {
    "MOLECULE": "CCOC(=O)C1=C(C[n+]2ccccc2)NC(C[n+]2ccccc2)=C(C(=O)OCC)C1c1ccccc1.[Br-].[Br-] [compound 1]",
    "QUALITATIVE_LABEL": "NO"
  },
  {
    "MOLECULE": "CCOC(=O)C1=C(C[n+]2ccccc2)NC(C[n+]2ccccc2)=C(C(=O)OCC)C1c1ccccc1C(F)(F)F.[Br-].[Br-] [compound 6]",
    "QUALITATIVE_LABEL": "NO"
  },
  {
    "MOLECULE": "CCCCCCCCCCCCOC(=O)C1=C(C[n+]2ccccc2)NC(C[n+]2ccccc2)=C(C(=O)OCCCCC(F)(F)C(F)(F)C(F)(F)C(F)(F)C(F)(F)C(F)(F)C(F)(F)C(F)(F)F)C1c1ccccc1 (centres unmarked) [compound 23]",
    "QUALITATIVE_LABEL": "NO"
  }
]

Query string: Given the entry O=C1CC(c2ccccc2)C(C(=O)OCCCCC(F)(F)C(F)(F)C(F)(F)C(F)(F)C(F)(F)C(F)(F)C(F)(F)C(F)(F)F)=C(C[n+]2ccccc2)N1.[O-][Cl+3]([O-])([O-])[O-] (centres unmarked) [compound 32] , would its reported IC50 be below 40 µg/mL?
Result string: YES

Query string: Given the entry O=C1CC(c2ccccc2)C(C(=O)OCCCCC(F)(F)C(F)(F)C(F)(F)C(F)(F)C(F)(F)C(F)(F)C(F)(F)C(F)(F)F)=C(C[n+]2ccccc2)N1.[Br-] (centres unmarked) [compound 31] , would its reported IC50 be below 40 µg/mL?
Result string: YES

Query string: Given the entry CCCCCCCCCCCCOC(=O)C1=C(C[N+](C)(C)C2CCCCC2)NC(C[N+](C)(C)C2CCCCC2)=C(C(=O)OCCCCCCCCCCCC)C1c1ccccc1.[O-][Cl+3]([O-])([O-])[O-].[O-][Cl+3]([O-])([O-])[O-] [compound 17] , would its reported IC50 be below 40 µg/mL?
Result string: YES

Query string: Given the entry O=C(OCCCCCCCCCCCC(F)(F)F)C1=C(C[n+]2ccccc2)NC(C[n+]2ccccc2)=C(C(=O)OCCCCCCCCCCCC(F)(F)F)C1c1ccccc1.[O-][Cl+3]([O-])([O-])[O-].[O-][Cl+3]([O-])([O-])[O-] [compound 22] , would its reported IC50 be below 40 µg/mL?
Result string: YES

Query string: Given the entry CCCCCCCCCCCCCCCCOC(=O)/C=C(\N)C[N+](C)(C)C1CCCCC1 [compound 39] , would its reported IC50 be below 40 µg/mL?
Result string: YES

Query string: Given the entry CCCCCCCCCCCCOC(=O)C1=C(C[n+]2ccccc2)NC(C[n+]2ccccc2)=C(C(=O)OCCCCCCCCCCCC)C1c1ccc(O)cc1.[Br-].[Br-] [compound 18] , would its reported IC50 be below 40 µg/mL?
Result string: YES

====

Test system: HT-1080 (human lung fibrosarcoma)
MEASUREMENT_DESCRIPTION: Cytotoxicity, crystal violet (CV) assay, HT-1080
APPLIED_CONDITIONS: Homo sapiens, HT-1080, 72 h, read-out: HT-1080 IC50 (CV)
MEASURED_QUANTITY: IC50

Examples with their reported IC50 follow.
[
  {
    "COMPOUND": "CCCCCCCCCCCCOC(=O)C1=C(C[n+]2ccc(N(C)C)cc2)NC(C[n+]2ccc(N(C)C)cc2)=C(C(=O)OCCCCCCCCCCCC)C1c1ccccc1.[Br-].[Br-]",
    "IC50": "10 µg/mL"
  },
  {
    "COMPOUND": "CCCCCCCCCCCCOC(=O)C1=C(C[N+](C)(C)CCCCCCCCCCCC)NC(C[N+](C)(C)CCCCCCCCCCCC)=C(C(=O)OCCCCCCCCCCCC)C1c1ccccc1.[O-][Cl+3]([O-])([O-])[O-].[O-][Cl+3]([O-])([O-])[O-]",
    "IC50": "3 µg/mL"
  },
  {
    "COMPOUND": "CCCCCCCCCCCC[N+](C)(C)C/C(N)=C/C(=O)OCCCCCCCCCC",
    "IC50": "3 µg/mL"
  },
  {
    "COMPOUND": "O=C1CC(c2ccccc2)C(C(=O)OCCCCC(F)(F)C(F)(F)C(F)(F)C(F)(F)C(F)(F)C(F)(F)C(F)(F)C(F)(F)F)=C([P+](c2ccccc2)(c2ccccc2)c2ccccc2)N1.[Br-] (stereo not drawn)",
    "IC50": "10 µg/mL"
  },
  {
    "COMPOUND": "CCCCCCCCCCCCOC(=O)C1=C(C[n+]2ccncc2)NC(C[n+]2ccncc2)=C(C(=O)OCCCCCCCCCCCC)C1c1ccccc1",
    "IC50": "> 100 µg/mL"
  },
  {
    "COMPOUND": "CCCCCCCCCCCCOC(=O)C1=C(C[N+](C)(C)CCCCCCCCCCCC)NC(=O)CC1c1ccccc1 (stereo not drawn)",
    "IC50": "2 µg/mL"
  }
]

Query string: Given COC(=O)C1=C(C[n+]2ccccc2)NC(=O)CC1c1ccccc1OC(F)F.[Br-] (stereo not drawn) , respond with its IC50.
Result string: > 100 µg/mL

Query string: Given CCCCCCCCCCCCOC(=O)C1=C(C[N+](C)(C)CCCCCCCCCCCC)NC(=O)CC1 , respond with its IC50.
Result string: 2 µg/mL

Query string: Given CCCCCCCCCCCCOC(=O)C1=C(C[n+]2ccccc2)NC(C[n+]2ccccc2)=C(C(=O)OCCCCCCCCCCCC)C1c1ccccc1.[Br-].[Br-] , respond with its IC50.
Result string: 3 µg/mL

Query string: Given CCCCCCCCCCCCOC(=O)C1=C(C[n+]2cccc(C(C)=O)c2)NC(C[n+]2cccc(C(C)=O)c2)=C(C(=O)OCCCCCCCCCCCC)C1c1ccccc1.[Br-].[Br-] , respond with its IC50.
Result string: 3 µg/mL

Query string: Given CCCCCCCCCCCCOC(=O)C1=C(C[n+]2ccccc2)NC(C[n+]2ccccc2)=C(C(=O)OCCCCCCCCCCCC)C1c1ccccc1 , respond with its IC50.
Result string: 31 µg/mL

Query string: Given CCCCCCCCCCCCOC(=O)C1=C(C[n+]2ccc(C)cc2)NC(C[n+]2ccc(C)cc2)=C(C(=O)OCCCCCCCCCCCC)C1c1ccccc1.[Br-].[Br-] , respond with its IC50.
Result string: 10 µg/mL
